The reported numbers originate from patent US10633366B2.

system-tested: E. coli Topoisomerase IV (Escherichia coli, UniProt P0AFI2+P20083)
Sequence (P0AFI2 whole entry): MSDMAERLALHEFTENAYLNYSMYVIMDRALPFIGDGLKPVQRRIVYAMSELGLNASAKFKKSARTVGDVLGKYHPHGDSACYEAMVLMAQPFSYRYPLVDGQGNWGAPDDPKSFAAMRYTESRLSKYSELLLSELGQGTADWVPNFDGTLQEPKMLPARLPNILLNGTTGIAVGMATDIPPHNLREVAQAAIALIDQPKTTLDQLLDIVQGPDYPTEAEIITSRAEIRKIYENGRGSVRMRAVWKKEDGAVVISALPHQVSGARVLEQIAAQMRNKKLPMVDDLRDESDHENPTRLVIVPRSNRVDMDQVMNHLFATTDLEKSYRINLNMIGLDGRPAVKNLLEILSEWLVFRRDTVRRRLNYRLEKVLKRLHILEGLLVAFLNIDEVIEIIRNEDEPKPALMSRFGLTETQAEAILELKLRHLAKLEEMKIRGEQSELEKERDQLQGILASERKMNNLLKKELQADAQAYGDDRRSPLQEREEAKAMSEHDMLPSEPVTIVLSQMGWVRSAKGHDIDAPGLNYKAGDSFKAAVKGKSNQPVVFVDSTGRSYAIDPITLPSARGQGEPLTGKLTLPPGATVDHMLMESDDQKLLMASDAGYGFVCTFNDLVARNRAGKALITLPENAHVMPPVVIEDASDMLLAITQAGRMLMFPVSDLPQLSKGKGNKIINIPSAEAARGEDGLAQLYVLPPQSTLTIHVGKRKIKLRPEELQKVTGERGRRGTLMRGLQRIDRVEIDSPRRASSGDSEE
Sequence (P20083 whole entry): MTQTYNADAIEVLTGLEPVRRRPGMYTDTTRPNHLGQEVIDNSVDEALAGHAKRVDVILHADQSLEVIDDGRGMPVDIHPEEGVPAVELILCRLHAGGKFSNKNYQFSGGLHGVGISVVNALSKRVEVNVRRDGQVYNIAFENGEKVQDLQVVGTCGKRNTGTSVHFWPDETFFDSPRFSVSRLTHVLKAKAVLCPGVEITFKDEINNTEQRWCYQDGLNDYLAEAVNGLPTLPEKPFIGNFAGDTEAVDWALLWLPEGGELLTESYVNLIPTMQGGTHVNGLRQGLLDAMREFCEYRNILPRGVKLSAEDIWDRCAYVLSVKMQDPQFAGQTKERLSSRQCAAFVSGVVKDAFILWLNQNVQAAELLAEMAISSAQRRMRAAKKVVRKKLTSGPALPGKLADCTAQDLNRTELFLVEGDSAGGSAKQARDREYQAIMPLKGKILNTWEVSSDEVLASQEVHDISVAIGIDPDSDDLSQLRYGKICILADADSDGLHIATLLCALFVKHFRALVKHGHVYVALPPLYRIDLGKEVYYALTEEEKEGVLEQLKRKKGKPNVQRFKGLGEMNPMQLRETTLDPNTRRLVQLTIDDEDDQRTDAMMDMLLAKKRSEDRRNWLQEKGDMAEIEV
protocol-description: biochemical
condition: IC50 Topo IV
Lab note: compare IC50 with 0.7 µM, writing TRUE if less and FALSE if equal or more.

Below are worked cases with known answers.
O=c1oc2ccccc2c2[nH]c(CNCC3CCN(c4nccc5ccc(F)cc45)C3)cc12 (single isomer, unassigned) [Compound 181]; FALSE
COc1cnc2ncc(=O)n([C@H]3CC[C@H](NCc4cc5c(=O)oc6ccc(F)cc6c5[nH]4)CC3)c2c1 [Compound 212]; TRUE
O=c1oc2ccc(F)cc2c2[nH]c(CN[C@H]3CC[C@@H](n4c(=O)cnc5ncc(F)cc54)CC3)cc12 [Compound 210]; FALSE
COc1ccc2ncc(=O)n([C@H]3CC[C@H](NCc4cc5c(=O)oc6ccc(F)cc6c5[nH]4)CC3)c2c1 [Compound 208]; TRUE
O=c1oc2ccc(F)cc2c2[nH]c(CN[C@H]3CC[C@H](n4c(=O)ccc5ncc(F)cc54)CC3)cc12 [Compound 207]; TRUE
Fc1ccc2ccnc(N3CCC(NCc4c[nH]c(-c5ccccn5)n4)CC3)c2c1 [Compound 160]; FALSE
O=c1nc(NCC(O)CN2CCN(c3nccc4ccncc34)CC2)c2cc(F)ccc2o1 (stereo not drawn) [Compound 157]; TRUE
COc1cnc2ccc(=O)n(C3CCN(CCc4cc5c(=O)oc6ccc(F)cc6c5[nH]4)CC3)c2n1 [Compound 200]; TRUE
O=C1COc2ncc(F)cc2N1[C@H]1CC[C@H](N(CCO)Cc2cc3c(=O)oc4ccc(F)cc4c3[nH]2)CC1 [Compound 221]; TRUE
O=c1oc2ccccc2c2[nH]c(CNCC3CCN(c4nccc5ccc(F)cc45)C3)cc12 (single isomer, unassigned) [Compound 180]; FALSE

Here is the next item to consider.
[ask] Hi there! Is IC50 for COc1cnc2c(c1)N([C@H]1CC[C@H](NCc3cc4c(=O)oc5ccc(F)cc5c4[nH]3)CC1)C(=O)CO2 [Compound 302] below 0.7 µM, do you know?
[reply] TRUE

* * *

system-tested: S. aureus DNA gyrase (Staphylococcus aureus, UniProt P0A0K8+P20831)
Sequence (P0A0K8 whole entry): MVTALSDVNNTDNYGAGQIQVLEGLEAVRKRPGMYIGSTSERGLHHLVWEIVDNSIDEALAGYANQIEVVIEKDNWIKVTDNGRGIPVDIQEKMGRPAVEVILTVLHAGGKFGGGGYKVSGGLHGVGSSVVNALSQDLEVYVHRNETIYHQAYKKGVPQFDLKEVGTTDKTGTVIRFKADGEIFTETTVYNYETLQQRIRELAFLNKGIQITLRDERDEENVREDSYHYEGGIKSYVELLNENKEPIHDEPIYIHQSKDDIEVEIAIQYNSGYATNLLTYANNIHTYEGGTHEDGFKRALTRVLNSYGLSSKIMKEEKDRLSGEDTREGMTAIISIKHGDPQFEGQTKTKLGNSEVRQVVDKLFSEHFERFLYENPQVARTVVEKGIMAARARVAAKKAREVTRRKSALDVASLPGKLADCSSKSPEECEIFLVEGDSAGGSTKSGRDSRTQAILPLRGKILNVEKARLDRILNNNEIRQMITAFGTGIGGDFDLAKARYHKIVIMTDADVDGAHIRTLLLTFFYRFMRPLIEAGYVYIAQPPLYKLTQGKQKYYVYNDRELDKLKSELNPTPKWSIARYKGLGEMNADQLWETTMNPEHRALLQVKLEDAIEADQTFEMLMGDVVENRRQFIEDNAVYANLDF
Sequence (P20831 whole entry): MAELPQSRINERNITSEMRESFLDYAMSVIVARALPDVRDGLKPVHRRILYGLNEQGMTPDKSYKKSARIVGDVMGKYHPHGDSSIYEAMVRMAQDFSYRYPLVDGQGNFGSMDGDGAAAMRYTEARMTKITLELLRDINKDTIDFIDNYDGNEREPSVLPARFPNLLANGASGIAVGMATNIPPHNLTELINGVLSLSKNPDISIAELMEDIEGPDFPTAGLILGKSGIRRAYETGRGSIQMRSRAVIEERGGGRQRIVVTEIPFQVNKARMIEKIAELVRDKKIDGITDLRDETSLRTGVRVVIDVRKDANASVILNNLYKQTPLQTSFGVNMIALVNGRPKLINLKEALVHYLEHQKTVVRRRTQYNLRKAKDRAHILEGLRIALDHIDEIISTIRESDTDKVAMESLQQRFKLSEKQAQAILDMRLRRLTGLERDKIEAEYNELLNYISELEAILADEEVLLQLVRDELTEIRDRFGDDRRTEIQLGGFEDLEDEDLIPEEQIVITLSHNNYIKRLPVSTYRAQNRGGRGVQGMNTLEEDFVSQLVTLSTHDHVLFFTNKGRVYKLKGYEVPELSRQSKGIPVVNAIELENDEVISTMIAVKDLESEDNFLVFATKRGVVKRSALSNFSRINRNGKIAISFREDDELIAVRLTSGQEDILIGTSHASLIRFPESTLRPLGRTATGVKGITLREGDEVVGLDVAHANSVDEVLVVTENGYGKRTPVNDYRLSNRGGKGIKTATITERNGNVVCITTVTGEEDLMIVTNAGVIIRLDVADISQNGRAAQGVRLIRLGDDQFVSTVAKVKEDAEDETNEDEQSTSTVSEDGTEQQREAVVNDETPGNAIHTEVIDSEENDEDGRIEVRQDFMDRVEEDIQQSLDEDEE
protocol-description: biochemical
condition: IC50 DNA gyrase
Threshold check on IC50: strictly below 0.7 µM is YES; on or above 0.7 µM is NO.

O=c1cc(NCC(O)C2CCN(C[C@@H]3Cn4c(=O)ccc5ncc(=O)n3c54)CC2)c2cc(F)ccc2o1 (mixture of isomers); NO
O=C1COc2ncc(F)cc2N1[C@H]1CC[C@H](NCc2cc3ncc4c(c3[nH]2)OCCO4)CC1; NO
O=c1oc2ccccc2c2[nH]c(CNCC3CCN(c4nccc5ccc(F)cc45)C3)cc12 (single isomer, unassigned) [Compound 181]; NO

[ask] Does COc1cnc2ccc(=O)n([C@H]3CC[C@@H](NCc4cc5c(=O)oc6ccc(F)cc6c5[nH]4)CC3)c2c1 have IC50 strictly under 0.7 µM?
[reply] YES

[ask] Consider next the compound O=c1oc2ccccc2c2[nH]c(CNCC3CN(c4nccc5ccc(F)cc45)CCO3)cc12 (single isomer, unassigned) [Compound 183] in the same way.
[reply] NO

[ask] Next: COc1cnc2ccc(=O)n([C@H]3CC[C@H](NCc4cc5c(=O)oc6ccc(F)cc6c5[nH]4)CC3)c2c1
[reply] YES
